Hey, just so you know, these numbers are from paper PMC3176174.

System: SEM cell line
Test: Cell survival assay of selected drugs
Assay type: cell-based, human
Conditions: Homo sapiens, 96 h, read-out: IC50 Mean ± SE
Examples of compounds with documented pIC50 follow.
Bear in mind: pIC50 is minus log10 of a mol/L concentration; give just that figure.

compound="C/C(=C\\c1csc(C)n1)[C@@H]1C[C@@H]2O[C@]2(C)CCC[C@H](C)[C@H](O)[C@@H](C)C(=O)C(C)(C)[C@@H](O)CC(=O)N1 [Ixabepilone]" value_reported=8.21
compound="Nc1nc(Cl)nc2c1ncn2[C@H]1C[C@H](O)[C@@H](CO)O1 [Cladribine]" value_reported=7.05

Looking up CCC1=C[C@@H]2CN(C1)Cc1c([nH]c3ccccc13)[C@@](C(=O)OC)(c1cc3c(cc1OC)N(C)[C@H]1[C@@](O)(C(=O)OC)[C@H](OC(C)=O)[C@]4(CC)C=CCN5CC[C@]31[C@@H]54)C2 [Vinorelbine] , I see its pIC50 listed as 7.27
